All figures here come from paper PMC4312132.

target: T6′S ELIC (Dickeya chrysanthemi, UniProt P0C7B7, T236S); experiment: GABA activation of T6′S ELIC, two-electrode voltage clamp in Xenopus oocytes
OBSERVATION TYPE: EC50 (mM)

compound_structure=NCCCC(=O)O endpoint_value=1.78

* * *

target: F16′A ELIC (Dickeya chrysanthemi, UniProt P0C7B7, F246A); assay: GABA activation of F16′A ELIC, two-electrode voltage clamp in Xenopus oocytes
pEC50: −log10 of the molar value.
OBSERVATION TYPE: pEC50

compound_structure=NCCCC(=O)O assayed_target="F16′A ELIC (Dickeya chrysanthemi, UniProt P0C7B7, F246A)" endpoint_value=2.31
